- assay system: IRAK4 (Homo sapiens)
- Construct: endogenous in cells; host or cells: OCI-LY10
- Sequence (Q9NWZ3 1-460): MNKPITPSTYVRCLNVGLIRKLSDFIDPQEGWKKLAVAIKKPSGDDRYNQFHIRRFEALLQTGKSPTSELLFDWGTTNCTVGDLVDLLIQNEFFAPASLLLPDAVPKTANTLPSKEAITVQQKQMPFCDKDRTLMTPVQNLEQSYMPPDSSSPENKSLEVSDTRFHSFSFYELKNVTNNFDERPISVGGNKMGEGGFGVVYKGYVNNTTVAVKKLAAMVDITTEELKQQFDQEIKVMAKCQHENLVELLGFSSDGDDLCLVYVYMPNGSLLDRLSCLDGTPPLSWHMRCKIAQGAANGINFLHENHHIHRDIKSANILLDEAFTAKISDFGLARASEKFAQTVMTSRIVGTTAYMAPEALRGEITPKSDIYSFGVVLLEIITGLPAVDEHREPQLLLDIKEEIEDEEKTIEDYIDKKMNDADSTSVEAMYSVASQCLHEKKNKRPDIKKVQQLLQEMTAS
- method notes: IRAK4 MSD Degradation in OCI-LY10
- Assay type: cell-based
- experimental context: OCI-LY10 cells, Meso Scale Discovery, incubated 4 to 24 hours
- Procedure: Degradation of IRAK4 in OCI-LY10 was quantitatively measured using Meso Scale Discovery technology. OCI-LY10 cells were seeded in 96-well plates (Corning 3799) with a density of 300,000 cells per well in 100 μL fresh media. […] The assay plates were then incubated at room temperature for 1 hour, washed 3 times with 150 μL/well TBST buffer, and 150 μL/well MSD reading buffer (Meso Scale Discovery catalog number R92TC-2) was added. […]
measured attribute: DC50

Would you please look over these solved cases?
compound | DC50
COc1cc2nn([C@H]3CC[C@H](CN4CCC(c5cc(C)cc6c5n(C)c(=O)n6C5CCC(=O)NC5=O)CC4)CC3)cc2cc1NC(=O)c1cccc(C(F)(F)F)n1 (stereo partly shown) | < 10 nM
COc1cc2nn([C@H]3CC[C@H](CN(C)C4CCN(c5cccc6c5n(C)c(=O)n6C5CCC(=O)NC5=O)CC4)CC3)cc2cc1NC(=O)c1ccc(C(F)(F)F)cn1 (stereo partly shown) | 10 to 50 nM
CC(C)Nc1cc(-c2ccc3cc(C#N)cnn23)ncc1C(=O)N[C@H]1CC[C@H](CN2CCN(c3cccc4c3n(C)c(=O)n4C3CCC(=O)NC3=O)CC2)CC1 (stereo partly shown) | < 10 nM
O=C1CCN(c2cncc3c(N4CCN(C[C@H]5CC[C@H](n6cc7cc(NC(=O)c8cccc(C(F)(F)F)n8)c(Cl)cc7n6)CC5)CC4)cccc23)C(=O)N1 | 10 to 50 nM
Cc1cccc(C(=O)Nc2cc3sc([C@H]4CC[C@H](CN5C[C@@H]6C[C@H]5CN6CCNc5cccc6c5C(=O)N(C5CCC(=O)NC5=O)C6=O)CC4)nc3cc2C(C)(C)O)n1 (stereo partly shown) | 100 to 200 nM
COc1cc2nn([C@H]3CC[C@H](CN4CCCN(c5cccc6c(N7CCC(=O)NC7=O)cncc56)CC4)CC3)cc2cc1NC(=O)c1cncc(C#N)c1 | > 200 nM
COc1cc2nn([C@H]3CC[C@H](CN(C)[C@H]4CC[C@H](c5cccc6c5n(C)c(=O)n6C5CCC(=O)NC5=O)CC4)CC3)cc2cc1NC(=O)c1cccc(C(F)(F)F)n1 (stereo partly shown) | < 10 nM
Cn1c(=O)n(C2CCC(=O)NC2=O)c2ccc(C3CCN(C[C@H]4CC[C@H](n5cc6cc(NC(=O)c7cccc(C(F)(F)F)n7)ncc6n5)CC4)CC3)c(Cl)c21 (stereo partly shown) | > 200 nM

Problem: What value of measured DC50 is listed for COc1cc2nn([C@H]3CC[C@H](CN4CCN(c5cccc6c(N7CCC(=O)NC7=O)cncc56)CC4)CC3)cc2cc1NC(=O)c1cccc(C(F)(F)F)n1 ?
Solution: < 10 nM

Problem: Further, for CC(=O)c1cc2nn([C@H]3CC[C@H](CN4CCN(c5cccc6c5n(C)c(=O)n6C5CCC(=O)NC5=O)CC4)CC3)cc2cc1NC(=O)c1cccc(C(F)(F)F)n1 (stereo partly shown) ?
Solution: < 10 nM
